Reported Prodrug (%) by item:
- ASSAY_NOTES: Plasma stability assay, rat plasma
- Assay type: in vitro ADME
- CONDITION_NOTES: rat, 120 min, 10 µM
The number alone won't do; follow it with the unit.

MOLECULE: CCCC(=O)O[C@H]1CC[C@@]2(c3ccc(OC)c(OC)c3)CCN(C)[C@H]2C1
Prodrug (%): 0.2%

input: May I ask what Prodrug (%) has been recorded for COc1ccc([C@@]23CC[C@H](OC(=O)C(C)(C)C)C[C@@H]2N(C)CC3)cc1OC ?
output: 42.3%

input: Input COc1ccc([C@@]23CC[C@@H](OCOC(=O)C(C)(C)C)C[C@@H]2N(C)CC3)cc1OC
output: 0.0%

input: Input COc1ccc([C@@]23CC[C@@H](OCOC(=O)C(C)C)C[C@@H]2N(C)CC3)cc1OC
output: 0.0%

input: Input CCOC(=O)O[C@@H]1CC[C@@]2(c3ccc(OC)c(OC)c3)CCN(C)[C@H]2C1
output: 0.0%

input: Input COc1ccc([C@@]23CC[C@H](OC(=O)C(C)C)C[C@@H]2N(C)CC3)cc1OC
output: 0.1%
